target: MCR-1 (Homo sapiens, UniProt Q01726); construct: expressed in transfected cells; host or cells: HEK 293; test: Melanocortin receptor binding assay, competition with 125I-HP 467, HEK 293 cells expressing hMCR-1; details: displacement of 125I-HP 467 at 10 μM isoquinoline compound; second of duplicate
Sequence (Q01726 whole entry): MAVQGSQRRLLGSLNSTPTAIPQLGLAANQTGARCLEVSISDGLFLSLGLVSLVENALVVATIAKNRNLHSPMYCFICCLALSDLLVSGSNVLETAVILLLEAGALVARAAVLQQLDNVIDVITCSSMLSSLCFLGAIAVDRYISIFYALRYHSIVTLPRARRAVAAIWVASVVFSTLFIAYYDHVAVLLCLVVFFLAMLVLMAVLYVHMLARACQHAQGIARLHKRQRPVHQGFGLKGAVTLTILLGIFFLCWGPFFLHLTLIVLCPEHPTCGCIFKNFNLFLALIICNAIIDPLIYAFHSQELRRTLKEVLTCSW
Decide using % Disp. MC-1 10 μM: a value greater than or equal to 50% is fulfilled, a smaller one is not fulfilled.

compound	tested system	category label
NCCN1Cc2ccccc2C(CNC2CCCCC2)C1c1ccccc1O (stereo not drawn) [TRG 2405-2]	MCR-1 (Homo sapiens, UniProt Q01726)	not fulfilled
CNC(CN)CN1Cc2ccccc2C(CNC2CCCCC2)C1c1ccc([N+](=O)[O-])o1 (stereo not drawn) [TRG 2405-170]	MCR-1 (Homo sapiens, UniProt Q01726)	fulfilled
CNC(CN)CN1Cc2ccccc2C(CNC2CCCCC2)C1c1cccc(CN)c1 (stereo not drawn) [TRG 2405-129]	MCR-1 (Homo sapiens, UniProt Q01726)	not fulfilled
NCCN1Cc2ccccc2C(CNC2CCCCC2)C1c1ccc(Br)cc1 (stereo not drawn) [TRG 2405-62]	MCR-1 (Homo sapiens, UniProt Q01726)	fulfilled
NCCN1Cc2ccccc2C(CNC2CCCCC2)C1c1ccoc1 (stereo not drawn) [TRG 2405-42]	MCR-1 (Homo sapiens, UniProt Q01726)	not fulfilled
NCCN1Cc2ccccc2C(CNC2CCCCC2)C1c1ccc2cccc(O)c2n1 (stereo not drawn) [TRG 2405-82]	MCR-1 (Homo sapiens, UniProt Q01726)	not fulfilled
NCCN1Cc2ccccc2C(CNC2CCCCC2)C1c1ccc(Oc2ccccc2)cc1 (stereo not drawn) [TRG 2405-72]	MCR-1 (Homo sapiens, UniProt Q01726)	fulfilled
NCCN1Cc2ccccc2C(CNC2CCCCC2)C1c1ccc([N+](=O)[O-])o1 (stereo not drawn) [TRG 2405-80]	MCR-1 (Homo sapiens, UniProt Q01726)	fulfilled
CCNc1ccc(C2C(CNC3CCCCC3)c3ccccc3CN2CC(CN)NC)cc1 (stereo not drawn) [TRG 2405-149]	MCR-1 (Homo sapiens, UniProt Q01726)	fulfilled
CNC(CN)CN1Cc2ccccc2C(CNC2CCCCC2)C1c1ccc(Oc2ccccc2)cc1 (stereo not drawn) [TRG 2405-162]	MCR-1 (Homo sapiens, UniProt Q01726)	fulfilled
NCCN1Cc2ccccc2C(CNC2CCCCC2)C1c1ccc2ccccc2c1 (stereo not drawn) [TRG 2405-20]	MCR-1 (Homo sapiens, UniProt Q01726)	fulfilled
CNC(CN)CN1Cc2ccccc2C(CNC2CCCCC2)C1c1ccc(Br)cc1 (mixture of isomers) [TRG 2405-152]	MCR-1 (Homo sapiens, UniProt Q01726)	fulfilled
NCCN1Cc2ccccc2C(CNC2CCCCC2)C1c1ccsc1 (stereo not drawn) [TRG 2405-53]	MCR-1 (Homo sapiens, UniProt Q01726)	not fulfilled
Cc1ccc(C2C(CNC3CCCCC3)c3ccccc3CN2CCN)s1 (stereo not drawn) [TRG 2405-78]	MCR-1 (Homo sapiens, UniProt Q01726)	not fulfilled
CNC(CN)CN1Cc2ccccc2C(CNC2CCCCC2)C1c1cccc(F)c1 (stereo not drawn) [TRG 2405-131]	MCR-1 (Homo sapiens, UniProt Q01726)	fulfilled
CNC(CN)CN1Cc2ccccc2C(CNC2CCCCC2)C1c1ccccc1OC (stereo not drawn) [TRG 2405-109]	MCR-1 (Homo sapiens, UniProt Q01726)	not fulfilled
CCNc1ccc(C2C(CNC3CCCCC3)c3ccccc3CN2CCN)cc1 (stereo not drawn) [TRG 2405-59]	MCR-1 (Homo sapiens, UniProt Q01726)	not fulfilled
Cn1cccc1C1C(CNC2CCCCC2)c2ccccc2CN1CCN (stereo not drawn) [TRG 2405-4]	MCR-1 (Homo sapiens, UniProt Q01726)	fulfilled
NCCN1Cc2ccccc2C(CNC2CCCCC2)C1c1ccc2c(c1)OCCO2 (stereo not drawn) [TRG 2405-3]	MCR-1 (Homo sapiens, UniProt Q01726)	not fulfilled
NCCN1Cc2ccccc2C(CNC2CCCCC2)C1c1cc(C(F)(F)F)cc(C(F)(F)F)c1 (stereo not drawn) [TRG 2405-28]	MCR-1 (Homo sapiens, UniProt Q01726)	fulfilled
NCCN1Cc2ccccc2C(CNC2CCCCC2)C1c1ncc[nH]1 (stereo not drawn) [TRG 2405-18]	MCR-1 (Homo sapiens, UniProt Q01726)	not fulfilled
NCCN1Cc2ccccc2C(CNC2CCCCC2)C1c1cccs1 (stereo not drawn) [TRG 2405-23]	MCR-1 (Homo sapiens, UniProt Q01726)	not fulfilled
CNC(CN)CN1Cc2ccccc2C(CNC2CCCCC2)C1c1ccccc1 (stereo not drawn) [TRG 2405-91]	MCR-1 (Homo sapiens, UniProt Q01726)	not fulfilled
NCCN1Cc2ccccc2C(CNC2CCCCC2)C1c1cc(Cl)cc(Cl)c1Cl (stereo not drawn) [TRG 2405-7]	MCR-1 (Homo sapiens, UniProt Q01726)	fulfilled
CS(=O)(=O)c1ccc(C2C(CNC3CCCCC3)c3ccccc3CN2CCN)cc1 (stereo not drawn) [TRG 2405-87]	MCR-1 (Homo sapiens, UniProt Q01726)	not fulfilled
CNC(CN)CN1Cc2ccccc2C(CNC2CCCCC2)C1c1ccco1 (stereo not drawn) [TRG 2405-107]	MCR-1 (Homo sapiens, UniProt Q01726)	fulfilled
NCCN1Cc2ccccc2C(CNC2CCCCC2)C1c1ccnc2ccccc12 (stereo not drawn) [TRG 2405-75]	MCR-1 (Homo sapiens, UniProt Q01726)	not fulfilled
COc1ccc(C2C(CNC3CCCCC3)c3ccccc3CN2CCN)cc1S(=O)(=O)O (stereo not drawn) [TRG 2405-88]	MCR-1 (Homo sapiens, UniProt Q01726)	not fulfilled
CNC(CN)CN1Cc2ccccc2C(CNC2CCCCC2)C1c1ccc(F)c(F)c1 (stereo not drawn) [TRG 2405-117]	MCR-1 (Homo sapiens, UniProt Q01726)	fulfilled
NCCN1Cc2ccccc2C(CNC2CCCCC2)C1c1cccc(F)c1F (stereo not drawn) [TRG 2405-9]	MCR-1 (Homo sapiens, UniProt Q01726)	not fulfilled
NCCN1Cc2ccccc2C(CNC2CCCCC2)C1c1ccc(C(F)(F)F)cc1 (stereo not drawn) [TRG 2405-58]	MCR-1 (Homo sapiens, UniProt Q01726)	not fulfilled
NCCN1Cc2ccccc2C(CNC2CCCCC2)C1c1cccc(F)c1 (stereo not drawn) [TRG 2405-41]	MCR-1 (Homo sapiens, UniProt Q01726)	not fulfilled
CNC(CN)CN1Cc2ccccc2C(CNC2CCCCC2)C1c1ccc2ccccc2n1 (mixture of isomers) [TRG 2405-112]	MCR-1 (Homo sapiens, UniProt Q01726)	not fulfilled

----------
pIC50 values by entry
molecular target: MCR-4 (Homo sapiens, UniProt P32245); construct: expressed in transfected cells; host or cells: HEK 293; assay: Melanocortin receptor binding assay, competition with 125I-HP 467, HEK 293 cells expressing hMCR-4; settings: TRG 2405 section; inhibition of binding of 125I-HP 467, HEK 293 cells expressing MCR-4; read-out: MC-4 IC50
Sequence (P32245 whole entry): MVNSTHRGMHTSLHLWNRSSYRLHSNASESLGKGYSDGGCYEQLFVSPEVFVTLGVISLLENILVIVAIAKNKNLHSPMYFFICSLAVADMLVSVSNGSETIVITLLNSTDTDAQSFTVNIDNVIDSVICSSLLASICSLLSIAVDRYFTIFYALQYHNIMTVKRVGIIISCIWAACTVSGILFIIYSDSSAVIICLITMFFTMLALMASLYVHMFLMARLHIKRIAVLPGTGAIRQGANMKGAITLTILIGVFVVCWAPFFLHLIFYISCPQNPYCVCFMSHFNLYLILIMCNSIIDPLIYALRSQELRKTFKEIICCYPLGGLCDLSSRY
pIC50: −log10 of the molar value.

compound	pIC50
CNC(CN)CN1Cc2ccccc2C(CNC2CCCCC2)C1c1cccc(Oc2ccc(OC)cc2)c1 (centres unmarked) [TRG 2405-124]	5.51
CNC(CN)CN1Cc2ccccc2C(CNC2CCCCC2)C1c1ccc(C(F)(F)F)cc1 (centres unmarked) [TRG 2405-148]	5.05
CNC(CN)CN1Cc2ccccc2C(CNC2CCCCC2)C1c1ccc([N+](=O)[O-])o1 (centres unmarked) [TRG 2405-170]	4.99
NCCN1Cc2ccccc2C(CNC2CCCCC2)C1c1ccc[nH]1 (centres unmarked) [TRG 2405-85]	4.48
Cn1cccc1C1C(CNC2CCCCC2)c2ccccc2CN1CCN (centres unmarked) [TRG 2405-4]	4.93
CNC(CN)CN1Cc2ccccc2C(CNC2CCCCC2)C1c1cccc(O)c1 (centres unmarked) [TRG 2405-133]	4.91
Cc1cccc(C2C(CNC3CCCCC3)c3ccccc3CN2CCN)c1 (centres unmarked) [TRG 2405-47]	4.72
CNC(CN)CN1Cc2ccccc2C(CNC2CCCCC2)C1c1ccc(O)cc1 (centres unmarked) [TRG 2405-156]	4.69
CNC(CN)CN1Cc2ccccc2C(CNC2CCCCC2)C1c1cccn1C (mixture of isomers) [TRG 2405-94]	4.98
CNC(CN)CN1Cc2ccccc2C(CNC2CCCCC2)C1c1ccc(Cl)cc1Cl (centres unmarked) [TRG 2405-100]	4.95
NCCN1Cc2ccccc2C(CNC2CCCCC2)C1c1ccc([N+](=O)[O-])o1 (centres unmarked) [TRG 2405-80]	4.68
CNC(CN)CN1Cc2ccccc2C(CNC2CCCCC2)C1c1ccc(F)c(Br)c1 (centres unmarked) [TRG 2405-126]	4.89
CNC(CN)CN1Cc2ccccc2C(CNC2CCCCC2)C1c1ccccn1 (centres unmarked) [TRG 2405-111]	4.77
NCCN1Cc2ccccc2C(CNC2CCCCC2)C1c1cc(C(F)(F)F)cc(C(F)(F)F)c1 (centres unmarked) [TRG 2405-28]	5.03
